These data points were gathered from patent US20230144436A1.

Here, each record is paired with measured Percent DMPK Reduction data.
Test system: DMPK
Assay: DMPK knockdown by transfected antisense oligonucleotides in DM1 C15 myotubes at 0.5 nM and 50 nM
Type: cell-based
Details: 50 nM oligonucleotide, 72 hours, qPCR, relative to vehicle control
Readout: Percent DMPK Reduction (%)

| Substance | Reported measurement |
| --- | --- |
| 280 (UUGCCAUAGGUCUCCGCCGU; chemistry not given here) [compound 280] | 60.12 |
| 270 (GGGCCUGGGACCUCACUGUC; chemistry not given here) [compound 270] | 76.81 |
| 299 (GCAGGAUGUUGUCGGGUUUG; chemistry not given here) [compound 299] | 78.03 |
| 252 (UCUCGGCCGGAAUCCGCUCC; chemistry not given here) [compound 252] | 67.46 |
| 360 (GACAAUAAAUACCGAGGAAU; chemistry not given here) [compound 360] | 47.51 |
| 319 (ACACCUGGCCCGUCUGCUUC; chemistry not given here) [compound 319] | 55.40 |
| 274 (UGCCCAUCCACGUCAGGGCC; chemistry not given here) [compound 274] | 33.09 |
| 374 (CCGCUCCCCAAACUUGCUCA; chemistry not given here) [compound 374] | 56.82 |
| 359 (UGCACGUGUGGCUCAAGCAG; chemistry not given here) [compound 359] | 64.18 |
| 306 (AGGGACAGCCGCUGGAACTG; chemistry not given here) [compound 306] | 45.34 |
| 363 (CAUGACCAGGUACAGGUAGU; chemistry not given here) [compound 363] | 59.09 |
| 376 (GGCUCCUGGGCGGCGCCAGA; chemistry not given here) [compound 376] | 96.23 |
| 268 (UCAGUGCAUCCAAAACGUGG; chemistry not given here) [compound 268] | 42.06 |
| 367 (GAUGUCCCUGUGCACGUAGC; chemistry not given here) [compound 367] | 62.46 |
| 371 (GUGGAAUCCGCGUAGAAGGG; chemistry not given here) [compound 371] | 49.34 |
| 275 (AGCGCCUCCGAUAGGCCAGG; chemistry not given here) [compound 275] | 61.91 |
| 323 (UUGAUGUCCCUGUGCACGUA; chemistry not given here) [compound 323] | 55.13 |
| 372 (UGGCCAUGACAAUCUCCGCC; chemistry not given here) [compound 372] | 72.55 |
| 254 (UUGUCGGGUUUGAUGUCCCU; chemistry not given here) [compound 254] | 55.56 |
| 343 (CGUAGUUGACUGGCGAAGUU; chemistry not given here) [compound 343] | 61.52 |
| 300 (GGCCUCAGCCUCUGCCGCAG; chemistry not given here) [compound 300] | 71.28 |
| 250 (CGGAUGGCCUCCAUCUCCCG; chemistry not given here) [compound 250] | 55.57 |
| 261 (GAAGUCGGCCAGGCGGAUGU; chemistry not given here) [compound 261] | 44.04 |
| 370 (ACUUGUUCAUGAUCUUCAUG; chemistry not given here) [compound 370] | 52.89 |
| 278 (CCAUCUCGGCCGGAAUCCGC; chemistry not given here) [compound 278] | 59.76 |
| 307 (GGGUUUGAUGUCCCUGUGCA; chemistry not given here) [compound 307] | 62.61 |
| 256 (UCCGCCAGGUAGAAGCGCGC; chemistry not given here) [compound 256] | 80.06 |
| 357 (CCUCAGCCUCUGCCGCAGGG; chemistry not given here) [compound 357] | 55.22 |
| 262 (UGUCGGGUUUGAUGUCCCUG; chemistry not given here) [compound 262] | 68.14 |
| 368 (CAGCAGUGUCAGCAGGUCCC; chemistry not given here) [compound 368] | 51.97 |
| 288 (CAGGGACAGCCGCUGGAACU; chemistry not given here) [compound 288] | 58.84 |
| 329 (UACACCUGGCCCGUCUGCUU; chemistry not given here) [compound 329] | 57.43 |
| 320 (CCCAGCGCCCACCAGUCACA; chemistry not given here) [compound 320] | 67.82 |
